Each entry below carries its reported log10 EC50.
# System: Plasmodium falciparum
# Assay details: NOVARTIS: Inhibition of Plasmodium falciparum W2 (drug-resistant) proliferation in erythrocyte-based infection assay
# Format: functional, organism-based
# Details: Plasmodium falciparum, W2; read-out: EC50
The base-10 logarithm of EC50, taken with EC50 in nM, is what appears here.

[[record]]
compound = "O=[N+]([O-])c1ccc(C=NNc2nc(Nc3ccccc3)nc(Nc3ccccc3)n2)o1"
test_system = "Plasmodium falciparum"
recorded_number = 2.66


Next, consider the following compound.
Prompt line: Name the reported log10 EC50 value associated with the compound `CCCn1nc(Oc2nc(NCC)cc(OC)n2)ccc1=O`
Response line: 2.83
